Experiment: small-molecule binders of probe aNOTCH2, primary screen, biochemical, small-molecule microarray, 635/667 nm fluorescence (AID 1121);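 note: score merges feature fluorescence read at 667 nm with its signal to noise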
Settings: higher = more signal

| Molecule | composite z-score |
| --- | --- |
| CC(C)(C)OC(=O)CC[C@@]1(C(=O)NCc2ccccc2)N=C(c2ccc(OCCCO)cc2)O[C@@H]1c1ccccc1 | 0.09 |
| C=CC[C@@]12N=C(c3ccc(OCCCO)cc3)O[C@@H]1c1ccccc1CN(Cc1ccccc1)C2=O | -0.053 |
| C[C@]1(C(=O)NCc2ccccc2)c2ccccc2C(=O)N(Cc2cc(C(F)(F)F)cc(C(F)(F)F)c2)[C@H]1c1ccc(CO)cc1 | 0.0827 |
| COC(=O)c1c(CC[C@@H](CO)NC(=O)N[C@H](Cn2cc(-c3cncn3C)nn2)C(C)C)oc(C(C)=O)c1C(=O)OC | -0.11 |
| COc1ccc([Si](C)(C)[C@@H]2[C@@H](CC(=O)N(CCO)Cc3ccccc3)O[C@]3(C(=O)N(Cc4cccc(N5CCC5=O)c4)c4ccccc43)[C@H]2C)cc1 | -0.0916 |
| COc1ccc([Si](C)(C)[C@H]2[C@H](CC(=O)N3Cc4ccccc4C[C@H]3CO)O[C@@]3(C(=O)N(Cc4cccc(N5CCOC5=O)c4)c4ccccc43)[C@@H]2C)cc1 | -0.104 |
| C=CC(=O)O[C@@H](Cc1ccccc1)[C@H]1C2C=CCCC=C2CN1Cc1cccc(Cl)c1 (some centres undefined) | -0.112 |
| COCCOC(=O)N1C(=O)[C@@]2(c3cc(C#CC4(O)CCCCCC4)ccc31)[C@H](C(=O)N1CCCCCCC1)[C@H]1C(=O)O[C@H](c3ccccc3)[C@H](c3ccccc3)N1[C@@H]2c1ccc(O)cc1 | 0.337 |
| CC(C)N1CC=CC23O[C@@H]4/C=C\CCCOC(=O)C4[C@H]2C(=O)N(CCO)[C@@H]3C1=O (some centres undefined) | -0.0874 |
| COC(=O)[C@@]1(Cc2ccccc2)[C@H]2c3cc(C(=O)N4CCCC4)n(CCN4CNCC4=O)c3C[C@H]2CN1C(=O)c1ccccc1 | -0.173 |
| O=C(NCc1ccccc1)[C@@]1(Cc2ccccc2)COC(c2ccc(OCCCO)cc2)=N1 | -0.0063 |
| [N-]=[N+]=NCc1ccccc1[C@H]1OC(c2ccc(OCCCO)cc2)=N[C@@]1(Cc1ccccc1N=[N+]=[N-])C(=O)NCc1ccccc1 | 0.0243 |
| COc1ccc(C(=O)Nc2ccc(CN3C(=O)[C@]4(O[C@H](CCn5cc(CCO)nn5)[C@@H]([Si](C)(C)c5ccc(OC)cc5)[C@@H]4C)c4ccccc43)cc2)cc1 | -0.0649 |
| C=CC[C@]1(C(=O)O)N=C(c2ccc(OCCCO)cc2)O[C@H]1c1ccccc1N=[N+]=[N-] | -0.159 |
